# study_system: biotinylated labeled human GPC3 protein (produced in-house) (human, UniProt P51654 25-559, limits assumed, biotinylated (Dojindo, Cat. No. LK03); sites not stated)
# test: ELISA, biotinylated human GPC3 protein
property: OD450 at 0.056 nM (OD450)
Write it as a number; the unit OD450 goes unstated.

Reference set, count: 2
[[record]]
binder = "hAb006LH3L1e (antibody, human IgG1, V domains shown, Humanized F3.38.7; VH H3 + VL L1e; expressed as human IgG1) VH: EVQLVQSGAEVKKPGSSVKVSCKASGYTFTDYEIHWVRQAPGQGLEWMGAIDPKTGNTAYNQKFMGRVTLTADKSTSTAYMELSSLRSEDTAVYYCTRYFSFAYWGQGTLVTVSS VL: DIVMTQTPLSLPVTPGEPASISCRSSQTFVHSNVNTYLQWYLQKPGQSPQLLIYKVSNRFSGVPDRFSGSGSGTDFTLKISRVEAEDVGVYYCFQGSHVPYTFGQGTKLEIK"
result_unit = "OD450"
measured_result = 0.592

[[record]]
binder = "hAb007LH1L1e (antibody, human IgG1, V domains shown, Humanized F3.81.19; VH H1 + VL L1e; expressed as human IgG1) VH: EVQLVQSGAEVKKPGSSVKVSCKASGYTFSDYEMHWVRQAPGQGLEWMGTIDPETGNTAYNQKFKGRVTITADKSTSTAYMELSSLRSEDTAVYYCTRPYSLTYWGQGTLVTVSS VL: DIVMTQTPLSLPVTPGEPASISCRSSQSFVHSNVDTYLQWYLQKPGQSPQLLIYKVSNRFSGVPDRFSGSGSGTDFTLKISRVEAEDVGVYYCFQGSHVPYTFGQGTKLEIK"
result_unit = "OD450"
measured_result = 0.104


Exercise: Suppose we examine the binder hAb007LH1L1c (antibody, human IgG1, V domains shown, Humanized F3.81.19; VH H1 + VL L1c; expressed as human IgG1) VH: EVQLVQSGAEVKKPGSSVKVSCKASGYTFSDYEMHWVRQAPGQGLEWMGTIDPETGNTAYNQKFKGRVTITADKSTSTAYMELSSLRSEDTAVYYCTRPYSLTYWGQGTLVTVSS VL: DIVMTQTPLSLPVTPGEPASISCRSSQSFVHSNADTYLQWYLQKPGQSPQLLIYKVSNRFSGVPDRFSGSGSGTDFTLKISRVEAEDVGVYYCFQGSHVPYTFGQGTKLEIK ; what OD450 at 0.056 nM value has been reported?
Solution: 0.25
